Hello, the source for this data is patent US10584117B2, in case you need it.

target: human recombinant HDAC6 (Homo sapiens)
assayExplanation: HDAC enzyme activity inhibition assay (HDAC6, fluorimetric kit)
protocolConditions: same protocol as the HDAC1 test
Protocol: In order to examine the HDAC6 selectivity of the compounds of formula I of the present invention by HDAC1 and HDAC6 enzymatic activity inhibition assays, an experiment was performed using a conventional substance as a control. HDAC enzyme activity was measured using a HDAC Fluorimetric Drug Discovery Kit (BML-AK511, 516) from Enzo Life Science. […] Based on the resulting values, each IC50 value was calculated using GraphPad Prism4.0 program.
# pIC50 values compiled below
Convention used: pIC50 is expressed as -log10 of the molar concentration.

Here's what some known entries look like.
{"compound": "O=C(c1ccncc1)N(Cc1ccc(-c2nnc(C(F)F)o2)cc1F)c1ccccc1", "target": "human recombinant HDAC6 (Homo sapiens)", "valueMeasured": 7.30}
{"compound": "O=C(C1CCN(C(=O)C(F)(F)F)CC1)N(Cc1ccc(-c2nnc(C(F)(F)F)o2)cc1)c1ccccc1", "target": "human recombinant HDAC6 (Homo sapiens)", "valueMeasured": 6.47}
{"compound": "CS(=O)(=O)N1CC(C(=O)N(Cc2ccc(-c3nnc(C(F)(F)F)o3)cc2F)c2ccccc2)C1", "target": "human recombinant HDAC6 (Homo sapiens)", "valueMeasured": 7.38}
{"compound": "Cl.O=C(C1CCNCC1)N(Cc1ccc(-c2nnc(C(F)(F)F)o2)cc1)c1ccccc1 [Compound 11137, hydrochloride]", "target": "human recombinant HDAC6 (Homo sapiens)", "valueMeasured": 6.44}
{"compound": "O=C(c1ccncc1)N(Cc1ccc(-c2nnc(C(F)(F)F)o2)cc1F)c1ccccc1", "target": "human recombinant HDAC6 (Homo sapiens)", "valueMeasured": 7.26}
{"compound": "O=C(c1ccncc1)N(Cc1ccc(-c2nnc(C(F)(F)F)o2)cn1)c1cccc(F)c1", "target": "human recombinant HDAC6 (Homo sapiens)", "valueMeasured": 7.47}
{"compound": "CC(=O)N1CC(C(=O)N(Cc2ccc(-c3nnc(C(F)(F)F)o3)cc2)c2ccccc2)C1", "target": "human recombinant HDAC6 (Homo sapiens)", "valueMeasured": 6.72}
{"compound": "CS(=O)(=O)N1CC(C(=O)N(Cc2ccc(-c3nnc(C(F)F)o3)cc2F)c2cccc(F)c2)C1", "target": "human recombinant HDAC6 (Homo sapiens)", "valueMeasured": 7.54}
{"compound": "CN1CCC(C(=O)N(Cc2ccc(-c3nnc(C(F)F)o3)cn2)c2cccc(F)c2)CC1", "target": "human recombinant HDAC6 (Homo sapiens)", "valueMeasured": 7.40}
{"compound": "CCN1CCC(C(=O)N(Cc2ccc(-c3nnc(C(F)(F)F)o3)cc2)c2ccccc2)CC1", "target": "human recombinant HDAC6 (Homo sapiens)", "valueMeasured": 6.49}

Note down pIC50 recorded for O=C(c1ccncc1)N(Cc1ccc(-c2nnc(C(F)(F)F)o2)cn1)c1ccccc1
7.23

Note down pIC50 recorded for O=C(c1ccncc1)N(Cc1ccc(-c2nnc(C(F)(F)F)o2)cc1)c1ccccc1
6.63

Note down pIC50 recorded for CCC(=O)N1CC(C(=O)N(Cc2ccc(-c3nnc(C(F)F)o3)cc2F)c2ccccc2)C1
7.41

Note down pIC50 recorded for O=C(CN1CC[C@H](O)C1)N(Cc1ccc(-c2nnc(C(F)F)o2)cc1F)c1ccc(F)c(Cl)c1
7.02

Note down pIC50 recorded for CCC(=O)N1CC(C(=O)N(Cc2ccc(-c3nnc(C(F)F)o3)cc2F)c2cccc(F)c2)C1
7.25

Note down pIC50 recorded for O=C(c1ccncc1)N(Cc1ccc(-c2nnc(C(F)(F)F)o2)cc1F)c1cccc(F)c1
6.97

Note down pIC50 recorded for CC(=O)N(Cc1ccc(-c2nnc(C(F)(F)F)o2)cc1)c1ccccc1
6.72

Note down pIC50 recorded for O=C(CN1CCCC1)N(Cc1ccc(-c2nnc(C(F)F)o2)cc1F)c1ccc(F)c(Cl)c1
7.14

Note down pIC50 recorded for O=C(C1CCS(=O)(=O)CC1)N(Cc1ccc(-c2nnc(C(F)(F)F)o2)cc1F)c1ccc(F)c(Cl)c1
6.42

Note down pIC50 recorded for CCN1CCC(C(=O)N(Cc2ccc(-c3nnc(C(F)F)o3)cc2F)c2ccccc2)CC1
7.01

Note down pIC50 recorded for O=C(C1CCN(C(=O)C(F)(F)F)CC1)N(Cc1ccc(-c2nnc(C(F)F)o2)cc1F)c1ccccc1
6.85

Note down pIC50 recorded for CC(=O)N1CC(C(=O)N(Cc2ccc(-c3nnc(C(F)F)o3)cc2F)c2cccc(F)c2)C1
7.29

Note down pIC50 recorded for O=C(C1CC1)N1CCN(CC(=O)N(Cc2ccc(-c3nnc(C(F)F)o3)cc2F)c2ccc(F)c(Cl)c2)CC1
6.73

Note down pIC50 recorded for CN1CC(C(=O)N(Cc2ccc(-c3nnc(C(F)(F)F)o3)cc2F)c2ccccc2)C1
7.28

Note down pIC50 recorded for O=C(C1CCN(C2COC2)CC1)N(Cc1ccc(-c2nnc(C(F)F)o2)cc1F)c1ccccc1
6.85

Note down pIC50 recorded for O=C(CN1CCN(C2COC2)CC1)N(Cc1ccc(-c2nnc(C(F)F)o2)cc1F)c1ccc(F)c(Cl)c1
7.08

---

target: human recombinant HDAC6 (Homo sapiens)
Construct: purchased Calbiochem 382180
assayExplanation: HDAC enzyme activity inhibition assay (HDAC6, fluorimetric kit)
Format: biochemical
protocolConditions: HDAC6 versus HDAC1
# HDAC6 selectivity (fold) values compiled below
Record the result as number plus unit.

Here's what some known entries look like.
{"structureString": "CCC(=O)N1CC(C(=O)N(Cc2ccc(-c3nnc(C(F)(F)F)o3)cc2F)c2ccccc2)C1", "endpoint": "HDAC6 selectivity (fold)", "valueMeasured": "1538 fold"}
{"structureString": "O=C(CN1CCN(C2COC2)CC1)N(Cc1ccc(-c2nnc(C(F)F)o2)cc1F)c1ccc(F)c(Cl)c1", "endpoint": "HDAC6 selectivity (fold)", "valueMeasured": "1190 fold"}
{"structureString": "CCN1CC(C(=O)N(Cc2ccc(-c3nnc(C(F)(F)F)o3)cc2)c2ccccc2)C1", "endpoint": "HDAC6 selectivity (fold)", "valueMeasured": "775 fold"}

Okay, next one:
Note down HDAC6 selectivity (fold) recorded for O=C(c1cccnc1)N(Cc1ccc(-c2nnc(C(F)F)o2)cn1)c1cccc(F)c1
4167 fold

---

target: human recombinant HDAC6 (Homo sapiens, UniProt Q9UBN7)
Sequence (Q9UBN7 whole entry): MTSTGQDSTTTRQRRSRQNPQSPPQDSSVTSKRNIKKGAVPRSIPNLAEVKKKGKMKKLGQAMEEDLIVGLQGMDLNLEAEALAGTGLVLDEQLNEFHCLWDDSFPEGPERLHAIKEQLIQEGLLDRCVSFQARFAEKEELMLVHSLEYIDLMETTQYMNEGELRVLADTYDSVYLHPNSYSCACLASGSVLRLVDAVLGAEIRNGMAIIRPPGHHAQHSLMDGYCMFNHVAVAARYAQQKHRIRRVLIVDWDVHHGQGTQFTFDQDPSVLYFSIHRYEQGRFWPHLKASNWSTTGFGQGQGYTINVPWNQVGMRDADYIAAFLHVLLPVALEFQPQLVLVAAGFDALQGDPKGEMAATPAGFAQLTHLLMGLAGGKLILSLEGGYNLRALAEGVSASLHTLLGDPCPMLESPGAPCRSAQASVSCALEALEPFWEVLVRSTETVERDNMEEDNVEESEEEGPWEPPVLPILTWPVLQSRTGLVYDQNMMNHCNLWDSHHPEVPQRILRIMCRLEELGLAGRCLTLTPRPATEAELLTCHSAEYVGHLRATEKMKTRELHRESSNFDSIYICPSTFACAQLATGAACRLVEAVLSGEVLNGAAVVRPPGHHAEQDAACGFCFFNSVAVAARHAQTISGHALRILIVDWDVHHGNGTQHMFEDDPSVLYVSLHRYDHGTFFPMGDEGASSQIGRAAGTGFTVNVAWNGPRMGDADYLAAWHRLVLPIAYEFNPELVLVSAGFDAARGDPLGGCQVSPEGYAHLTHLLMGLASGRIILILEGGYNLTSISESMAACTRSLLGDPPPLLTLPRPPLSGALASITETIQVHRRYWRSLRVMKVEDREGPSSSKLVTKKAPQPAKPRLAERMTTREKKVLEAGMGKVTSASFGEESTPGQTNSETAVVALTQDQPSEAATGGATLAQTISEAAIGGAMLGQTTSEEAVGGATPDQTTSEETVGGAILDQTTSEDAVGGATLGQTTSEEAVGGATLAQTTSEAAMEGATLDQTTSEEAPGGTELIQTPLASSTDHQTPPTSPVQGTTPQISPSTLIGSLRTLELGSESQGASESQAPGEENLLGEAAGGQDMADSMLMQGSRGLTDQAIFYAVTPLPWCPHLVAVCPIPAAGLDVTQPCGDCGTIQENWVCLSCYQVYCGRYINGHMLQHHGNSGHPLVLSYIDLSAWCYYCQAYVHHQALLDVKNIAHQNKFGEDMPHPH
assayExplanation: HDAC enzyme activity inhibition assay (HDAC6, fluorimetric kit)
protocolConditions: same protocol as the HDAC1 test
endpoint: pIC50
Convention used: pIC50 is expressed as -log10 of the molar concentration.

Here's what some known entries look like.
{"structureString": "CCC(=O)N1CCC(C(=O)N(Cc2ccc(-c3nnc(C(F)F)o3)cc2F)c2ccccc2)CC1", "valueMeasured": 7.05}
{"structureString": "O=C(C1CN(C(=O)C(F)(F)F)C1)N(Cc1ccc(-c2nnc(C(F)(F)F)o2)cc1)c1ccccc1", "valueMeasured": 6.90}
{"structureString": "CCCCN1CC(C(=O)N(Cc2ccc(-c3nnc(C(F)F)o3)cc2F)c2cccc(F)c2)C1", "valueMeasured": 7.09}
{"structureString": "CC(=O)N(Cc1ccc(-c2nnc(C(F)(F)F)o2)cc1F)c1ccccc1", "valueMeasured": 6.88}
{"structureString": "O=C(c1ccncc1)N(Cc1ccc(-c2nnc(C(F)F)o2)cn1)c1cccc(F)c1", "valueMeasured": 7.49}

Note down pIC50 recorded for CN1CC(C(=O)N(Cc2ccc(-c3nnc(C(F)F)o3)cc2F)c2cccc(F)c2)C1
7.05

Note down pIC50 recorded for CCCC(=O)N(Cc1ccc(-c2nnc(C(F)F)o2)cc1F)c1cccc(F)c1
7.06

Note down pIC50 recorded for O=C(CN1CCOCC1)N(Cc1ccc(-c2nnc(C(F)F)o2)cc1F)c1ccc(F)c(Cl)c1
7.07

---

target: human recombinant HDAC6 (Homo sapiens)
assayExplanation: HDAC enzyme activity inhibition assay (HDAC6, fluorimetric kit)
protocolConditions: same protocol as the HDAC1 test
endpoint: IC50 (µM)
Kindly provide the numeric value in µM only, without the unit symbol.

Here's what some known entries look like.
{"compound": "CC(C)C(=O)N1CC(C(=O)N(Cc2ccc(-c3nnc(C(F)(F)F)o3)cc2F)c2ccccc2)C1 [Compound 11236]", "unitOfMeasure": "µM", "IC50": 0.073}
{"compound": "O=C(CN1CCS(=O)(=O)CC1)N(Cc1ccc(-c2nnc(C(F)F)o2)cc1F)c1ccc(F)c(Cl)c1 [Compound 11610]", "unitOfMeasure": "µM", "IC50": 0.145}
{"compound": "CC(C)C(=O)N1CCC(C(=O)N(Cc2ccc(-c3nnc(C(F)F)o3)cc2F)c2ccccc2)CC1 [Compound 11213]", "unitOfMeasure": "µM", "IC50": 0.128}
{"compound": "NC(=O)[C@@H]1CCCN1CC(=O)N(Cc1ccc(-c2nnc(C(F)F)o2)cc1F)c1ccc(F)c(Cl)c1 [Compound 11538]", "unitOfMeasure": "µM", "IC50": 0.063}

Okay, next one:
Note down IC50 recorded for O=C(C1CN(C(=O)C(F)(F)F)C1)N(Cc1ccc(-c2nnc(C(F)F)o2)cc1F)c1ccccc1 [Compound 11244]
0.063
